Tested on: healthy male rats
Test: acute hypercalcemic action after one-time subcutaneous administration
Type: in vivo, rat
Conditions: DR = test substance dose/calcitriol dose for comparable effects, serum-calcium
Method: To determine the acute hypercalcemic action of various calcitriol derivatives, the test that is described below is carried out: The action of control (solution base), reference substance (1,25(OH)2—D3=calcitriol) and test substance is tested in each case after one-time subcutaneous administration in groups of 10 healthy male rats (140-170 g). During the testing time, the rats are kept in special cages to determine the excretion of water and mineral substances. […]
Property name: dose ratio for hypercalcemia

C=C1/C(=C\C=C2/CCC[C@]3(C)[C@@H]([C@H](C)/C=C/[C@@H](O)C4(C(=O)C(C)(C)C)CC4)CC[C@@H]23)C[C@@H](O)C[C@@H]1O [Compound 15b] on healthy male rats gives dose ratio for hypercalcemia = 300

a. C=C1/C(=C\C=C2/CCC[C@]3(C)[C@@H]([C@H](C)CCCC(C)(C)O)CC[C@@H]23)C[C@@H](O)C[C@@H]1O [Calcitriol, 1α,25-dihydroxy vitamin D3, reference compound]
b. C=C1C(=CC=C2CCCC3(C)C2CCC3C(C)C=CC(O)C2(C(C)=O)CC2)CC(O)CC1O (centres unmarked) [Compound 7b]
c. C=C1/C(=C\C=C2/CCC[C@]3(C)[C@@H]([C@H](C)/C=C/[C@@H](O)C4(C(=O)CCC)CC4)CC[C@@H]23)C[C@@H](O)C[C@@H]1O [Compound 8b]
Query: Task for the reader: rank each entry by its dose ratio for hypercalcemia, from the minimum upward. List each label, following the requested order.
Response: a, c, b
(a: 1, c: 100, b: 300)
